B1: CPEB3 Ribozyme (parent)
chain: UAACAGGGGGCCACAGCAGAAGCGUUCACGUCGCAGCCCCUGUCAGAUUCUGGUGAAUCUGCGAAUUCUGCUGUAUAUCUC

Variants of: B1
method.summary: self-cleavage, relative activity (ratio to wild type); higher = more cleavage; in vitro, sequencing
// reported self-cleavage for each item listed
Output: the number by itself.

Worked set:
mutation.code: A2G A28C
self-cleavage: 0.38

mutation.code: A45U U58C
self-cleavage: 0.29

mutation.code: U41A C44A
self-cleavage: 0.15

mutation.code: A21G A45U
self-cleavage: 0.32

mutation.code: C11G U49G
self-cleavage: 0.31

Sample C12U A20G ; self-cleavage observed: 1.19

Sample A5G A57U ; self-cleavage observed: 1.04

Sample A21G C44U ; self-cleavage observed: 0.26
